- Run Description: Pharmacokinetics study of KPT-335 in cats (i.v. injection, p.o. capsules and tablets; UPLC-MS/MS, non-compartmental analysis)
- Type: in vivo
- Details: both sexes, cat, plasma, po, 2 mg/kg, cats, tablet p.o. 2 mg/kg BW after feeding, 0.33 h, mean
- Protocol: In this study, a parallel trial design was employed, 42 adult domestic cats (21 males and 21 females), aged 1 to 2 years and weighing 2.5 ± 0.25 kg. Cats were grouped by random number, with half male and female in each group, and all cats were determined to be systemically healthy during an initial screening visit 1 week prior to the experiment. They were acclimatized to the laboratory environment for 7 days before the study commenced. […]
Measurement Name: concentration at 0.33 h
# output: numeric value plus its unit

Can you share its concentration at 0.33 h? I mean this compound: O=C(/C=C\n1cnc(-c2cc(C(F)(F)F)cc(C(F)(F)F)c2)n1)NNc1ccccn1 [KPT-335] 95.9 ng/mL

----------
- Run Description: Pharmacokinetics study of KPT-335 in cats (i.v. injection, p.o. capsules and tablets; UPLC-MS/MS, non-compartmental analysis)
- Format: in vivo
- Details: both sexes, cat, plasma, po, 0.2 mg/kg, cats, capsule p.o. 0.2 mg/kg BW, 4 h, mean; read-out: Plasma concentration Mean
Measurement Name: concentration at 4 h (ng/mL)
Numbers only, in ng/mL.

Can you share its concentration at 4 h? I mean this compound: `O=C(/C=C\n1cnc(-c2cc(C(F)(F)F)cc(C(F)(F)F)c2)n1)NNc1ccccn1` 17.9

----------
- Run Description: Pharmacokinetics study of KPT-335 in cats (i.v. injection, p.o. capsules and tablets; UPLC-MS/MS, non-compartmental analysis)
- Assay type: in vivo
- Details: female, plasma, po, 1 mg/kg, female cats, p.o., Capsule, Fasting, 1 mg/kg BW; read-out: AUClast Value females
Measurement Name: AUC(0-t) (ng·h/mL)
One number for each entry, in ng·h/mL.

Data request, read-out AUC(0-t), for `O=C(/C=C\n1cnc(-c2cc(C(F)(F)F)cc(C(F)(F)F)c2)n1)NNc1ccccn1` 1490

----------
- Run Description: Pharmacokinetics study of KPT-335 in cats (i.v. injection, p.o. capsules and tablets; UPLC-MS/MS, non-compartmental analysis)
- Assay type: in vivo
- Details: both sexes, cat, plasma, po, 1 mg/kg, cats, tablet p.o. 1 mg/kg BW after fasting, 0.167 h, mean; read-out: Plasma concentration Mean
Measurement Name: concentration at 0.167 h (ng/mL)
Numbers only, in ng/mL.

Form field: reported concentration at 0.167 h of `O=C(/C=C\n1cnc(-c2cc(C(F)(F)F)cc(C(F)(F)F)c2)n1)NNc1ccccn1` 5.66

----------
- Run Description: Pharmacokinetics study of KPT-335 in cats (i.v. injection, p.o. capsules and tablets; UPLC-MS/MS, non-compartmental analysis)
- Type: in vivo
- Details: both sexes, cat, plasma, po, 1 mg/kg, cats, tablet p.o. 1 mg/kg BW after fasting, 48 h, mean; read-out: Plasma concentration Mean
Measurement Name: concentration at 48 h (ng/mL)
Give bare numbers, in ng/mL.

What does the record list as concentration at 48 h for `O=C(/C=C\n1cnc(-c2cc(C(F)(F)F)cc(C(F)(F)F)c2)n1)NNc1ccccn1` ? 2.26
